# Measured On: T1, human vascular endothelial growth factor receptor-2 Fc chimera (KDR-Fc) (human, UniProt P35968 20-764)
# T1 construct: range 1-764; also called human VEGFR-2; VEGF-R2-Fc; not shown: human IgG1 Fc
# Assay Summary: radioactive equilibrium binding, 1 nM KDR-Fc
Listing: Binding to 1 nM KDR, % of selected binders

Binder	Binding to 1 nM KDR, %
K3 (designed binder, Del 1-8) EVVAATPTSLLISWRHPHFPTRYYRITYGETGGNSPVQEFTVPLQPPTATISGLKPGVDYTITGYAVTAGWDDHELFIPISINYRT	45%
4B11 PR3 (designed binder, Del 1-8) EVVAATPTSLLISWRHPHFPTRYYRITYGETGGNSPVQEFTVPLQPPTATISGLKPGVDYTITGYAVTVGQNNHELITPISINYRT	15%
4′G4 PR4 (designed binder, Del 1-8) EVVAATPTSLLISWRHPHFPTRYYRITYGETGGNSPVQEFTVPLQPPTATISGLKPGVDYTITGYAVTVAQNDRELLTPISINYRT	19%
